- Test system: pigmentation on the backs of color guinea pigs irradiated with UV rays
- test.protocol: whitening evaluation on UV-induced pigmentation; also: key: +++: notably improved; ++: improved; +: a little improved; ±: no change
- Format: in vivo
- assay.context: 30 µL of 0.05 % in ethanol/propylene glycol (7 : 3), once a day, five times a week, 4 weeks; visual change in pigmentation
metric.name: Whitening-improving effect

Worked examples follow.
CC(C)CCCCCCCCCCCCCCC(=O)N[C@H]1C(O)O[C@H](CO)[C@@H](O)[C@@H]1O (stereo partly drawn) [N-isostearoyl-D-glucosamine] :: +
CCCCCCCC/C=C\CCCCCCCC(=O)N[C@H]1C(O)O[C@H](CO)[C@@H](O)[C@@H]1O (stereo partly drawn) [N-oleoyl-D-glucosamine] :: +++
CCCCCCCCCCCCOC(=O)N[C@H]1C(O)O[C@H](CO)[C@@H](O)[C@@H]1O (stereo partly drawn) [N-dodecyloxycarbonyl-D-glucosamine] :: +++
CCCCC/C=C\C/C=C\CCCCCCCC(=O)N[C@H]1C(O)O[C@H](CO)[C@@H](O)[C@@H]1O (stereo partly drawn) [N-linoleoyl-D-glucosamine] :: ++

Q: Using the record for CCCCCCCCCCCC(=O)N[C@H]1C(O)O[C@H](CO)[C@@H](O)[C@@H]1O (stereo partly drawn) [N-lauroyl-D-glucosamine] , state its measured Whitening-improving effect.
Ans: +

* * *

- test.protocol: solubility in the ethanol/propylene glycol (7 : 3) solvent (Japanese Pharmacopoeia criteria)
- Assay type: physicochemical
- assay.context: organic solvent or mixture, 20°C, within 30 minutes, amount of solvent for 1 g or 1 ml of solute
metric.name: solubility at 0.5 h

Q: Using the record for CC1=C(/C=C/C(C)=C/C=C/C(C)=C/C(=O)N[C@H]2C(O)O[C@H](CO)[C@@H](O)[C@@H]2O)C(C)(C)CCC1 [N-retinoyl-D-glucosamine (cis isomer/trans isomer = 0/100), N-retinoyl-D-glucosamine] , state its measured solubility at 0.5 h.
Ans: 1000 to 10000 µg/mL

Q: Using the record for CC(=O)OC[C@H]1OC(OC(C)=O)[C@H](NC(=O)/C=C(C)/C=C/C=C(C)/C=C/C2=C(C)CCCC2(C)C)[C@@H](OC(C)=O)[C@@H]1OC(C)=O (single isomer, unassigned) , state its measured solubility at 0.5 h.
Ans: 1000 to 10000 µg/mL

* * *

Exercise: for every item that follows, state its recorded Evaluation ×.
- Test system: acnes of acne patients
- test.protocol: acne-improvement evaluation with an essence for acne
- Format: in vivo
- assay.context: number of subjects rated × : worsened; essence with 0.05 %, a month later
// print number alone

Q: Using the record for CCCCCCCCCCCC(=O)N[C@H]1C(O)O[C@H](CO)[C@@H](O)[C@@H]1O (stereo partly shown) , state its measured Evaluation ×.
Ans: 1

Q: Using the record for CCCCC/C=C\C/C=C\CCCCCCCC(=O)N[C@H]1C(O)O[C@H](CO)[C@@H](O)[C@@H]1O (stereo partly shown) , state its measured Evaluation ×.
Ans: 1

Q: Using the record for CC(C)CCCCCCCCCCCCCCC(=O)N[C@H]1C(O)O[C@H](CO)[C@@H](O)[C@@H]1O (stereo partly shown) , state its measured Evaluation ×.
Ans: 0

Q: Using the record for CCCCCCCC/C=C\CCCCCCCC(=O)N[C@H]1C(O)O[C@H](CO)[C@@H](O)[C@@H]1O (stereo partly shown) , state its measured Evaluation ×.
Ans: 0

* * *

- Test system: wrinkles of the back skin of hairless mice irradiated with UVB
- test.protocol: wrinkle-improving test in UVB-irradiated hairless mice
- Assay type: in vivo, hairless mice (hos: HR-1)
- assay.context: 100 µL of 0.05 % in ethanol/propylene glycol (7 : 3), once a day, five times a week, 8 weeks, after 10 weeks UVB 50 mJ/cm^2; visual score relative to control group
metric.name: Wrinkle-improving rate (%)
Give the value, in units of %, as a plain number.

Q: Using the record for CCCCCCCC/C=C\CCCCCCCC(=O)N[C@H]1C(O)O[C@H](CO)[C@@H](O)[C@@H]1O (stereo partly drawn) [N-oleoyl-D-glucosamine] , state its measured Wrinkle-improving rate.
Ans: 65

Q: Using the record for CC(C)CCCCCCCCCCCCCCC(=O)N[C@H]1C(O)O[C@H](CO)[C@@H](O)[C@@H]1O (stereo partly drawn) [N-isostearoyl-D-glucosamine] , state its measured Wrinkle-improving rate.
Ans: 80

Q: Using the record for CCCCCCCCCCCC(=O)N[C@H]1C(O)O[C@H](CO)[C@@H](O)[C@@H]1O (stereo partly drawn) [N-lauroyl-D-glucosamine] , state its measured Wrinkle-improving rate.
Ans: 78

Q: Using the record for CCCCC/C=C\C/C=C\CCCCCCCC(=O)N[C@H]1C(O)O[C@H](CO)[C@@H](O)[C@@H]1O (stereo partly drawn) [N-linoleoyl-D-glucosamine] , state its measured Wrinkle-improving rate.
Ans: 62

* * *

- System: acnes of acne patients
- test.protocol: acne-improvement evaluation with an essence for acne
- Assay type: in vivo
- assay.context: number of subjects rated Δ : no change; essence with 0.05 %, a month later
Exercise: for every item that follows, state its recorded Evaluation Δ.
// print number alone

Q: Using the record for CCCCCCCC/C=C\CCCCCCCC(=O)N[C@H]1C(O)O[C@H](CO)[C@@H](O)[C@@H]1O (stereo partly shown) , state its measured Evaluation Δ.
Ans: 2

Q: Using the record for CCCCC/C=C\C/C=C\CCCCCCCC(=O)N[C@H]1C(O)O[C@H](CO)[C@@H](O)[C@@H]1O (stereo partly shown) , state its measured Evaluation Δ.
Ans: 3

Q: Using the record for CCCCCCCCCCCC(=O)N[C@H]1C(O)O[C@H](CO)[C@@H](O)[C@@H]1O (stereo partly shown) , state its measured Evaluation Δ.
Ans: 1

Q: Using the record for CC(C)CCCCCCCCCCCCCCC(=O)N[C@H]1C(O)O[C@H](CO)[C@@H](O)[C@@H]1O (stereo partly shown) , state its measured Evaluation Δ.
Ans: 2

* * *

- Tested on: guinea pig skin
- test.protocol: continuous irritative test of guinea pig skin (Draize method)
- Format: in vivo, guinea pig (Hartley series)
- Set-up: key: sum of erythema (0-4) + edema (0-4) scores; max 8
- assay.context: Table 1; 50 µL of 0.5 % in ethanol/propylene glycol (7 : 3) once a day, after 3 days straight; total points of erythema and edema, full marks 8; N = 10
Exercise: for every item that follows, state its recorded Draize score.
// print number alone

Q: Using the record for CCCCC/C=C\C/C=C\CCCCCCCC(=O)N[C@H]1C(O)O[C@H](CO)[C@@H](O)[C@@H]1O (stereo partly drawn) [N-linoleoyl-D-glucosamine] , state its measured Draize score.
Ans: 0.3

Q: Using the record for CC(=O)OC[C@H]1OC(OC(C)=O)[C@H](NC(=O)/C=C(C)/C=C/C=C(C)/C=C/C2=C(C)CCCC2(C)C)[C@@H](OC(C)=O)[C@@H]1OC(C)=O (stereo partly drawn) , state its measured Draize score.
Ans: 0.0

Q: Using the record for CCCCCCCCCCCC(=O)N[C@H]1C(O)O[C@H](CO)[C@@H](O)[C@@H]1O (stereo partly drawn) [N-lauroyl-D-glucosamine] , state its measured Draize score.
Ans: 0.1

Q: Using the record for CC(C)CCCCCCCCCCCCCCC(=O)N[C@H]1C(O)O[C@H](CO)[C@@H](O)[C@@H]1O (stereo partly drawn) [N-isostearoyl-D-glucosamine] , state its measured Draize score.
Ans: 0.1

Q: Using the record for CC1=C(/C=C/C(C)=C/C=C/C(C)=C/C(=O)O)C(C)(C)CCC1 [Retinoic acid, reference compound] , state its measured Draize score.
Ans: 8.0

Q: Using the record for CCCCCCCC/C=C\CCCCCCCC(=O)N[C@H]1C(O)O[C@H](CO)[C@@H](O)[C@@H]1O (stereo partly drawn) [N-oleoyl-D-glucosamine] , state its measured Draize score.
Ans: 0.2

* * *

- Tested on: skin roughness in the inside of a forearm formed with 10 % SDS solution
- test.protocol: skin roughness-improving test (SDS-induced roughness, stratum corneum conductance)
- Format: in vivo, human being
- assay.context: hydrophilic ointment with 0.05 %, twice a day, 3 days later; conductance relative to ointment with no tested substance = 100
Exercise: for every item that follows, state its recorded Skin roughness-improving rate.
Give the value, in units of %, as a plain number.

Q: Recall the reported Skin roughness-improving rate of CCCCCCCCCCCCOC(=O)N[C@H]1C(O)O[C@H](CO)[C@@H](O)[C@@H]1O (some centres unmarked) on skin roughness in the inside of a forearm formed with 10 % SDS solution and write it down.
Ans: 183

Q: Recall the reported Skin roughness-improving rate of CCCCCCCCCCCC(=O)N[C@H]1C(O)O[C@H](CO)[C@@H](O)[C@@H]1O (some centres unmarked) on skin roughness in the inside of a forearm formed with 10 % SDS solution and write it down.
Ans: 114

Q: Recall the reported Skin roughness-improving rate of CCCCC/C=C\C/C=C\CCCCCCCC(=O)N[C@H]1C(O)O[C@H](CO)[C@@H](O)[C@@H]1O (some centres unmarked) on skin roughness in the inside of a forearm formed with 10 % SDS solution and write it down.
Ans: 115

Q: Recall the reported Skin roughness-improving rate of CC(C)CCCCCCCCCCCCCCC(=O)N[C@H]1C(O)O[C@H](CO)[C@@H](O)[C@@H]1O (some centres unmarked) on skin roughness in the inside of a forearm formed with 10 % SDS solution and write it down.
Ans: 136

Q: Recall the reported Skin roughness-improving rate of CCCCCCCC/C=C\CCCCCCCC(=O)N[C@H]1C(O)O[C@H](CO)[C@@H](O)[C@@H]1O (some centres unmarked) on skin roughness in the inside of a forearm formed with 10 % SDS solution and write it down.
Ans: 114

All figures here come from patent EP1941863A2.
